Data origin: ChEMBL document CHEMBL1177770

# System: HCT-116
# PROCEDURE TEXT: Growth inhibition of human HCT116 cells at 10 uM after 2 days by MTT assay
# Format: functional
# SETTINGS: HCT-116, 48 h
Collected inhibition at 10 µM values appear next to each entry.

- STRUCTURE AS SMILES: "O=C(NCCc1ccc(F)cc1)c1cc(-n2cc(-c3cc(O)ccc3O)nn2)ccc1O"
  UNIT STRING: "%"
  inhibition at 10 µM: 18
- STRUCTURE AS SMILES: "COc1cc(OC)cc(-c2cn(-c3ccc(O)c(C(=O)Nc4cccc(C(F)(F)F)c4)c3)nn2)c1"
  UNIT STRING: "%"
  inhibition at 10 µM: 62
- STRUCTURE AS SMILES: "COC(=O)c1cc(-n2cc(-c3cc(O)ccc3O)nn2)ccc1O"
  UNIT STRING: "%"
  inhibition at 10 µM: 15
- STRUCTURE AS SMILES: "COC(=O)c1cc(-n2cc(-c3cccc(O)c3)nn2)ccc1O"
  UNIT STRING: "%"
  inhibition at 10 µM: 6
- STRUCTURE AS SMILES: "COc1ccccc1-c1cn(-c2ccc(O)c(C(=O)NCCc3ccc(F)cc3)c2)nn1"
  UNIT STRING: "%"
  inhibition at 10 µM: 23
- STRUCTURE AS SMILES: "O=C(O)c1cc(-n2cc(-c3cccc(O)c3)nn2)ccc1O"
  UNIT STRING: "%"
  inhibition at 10 µM: 5
- STRUCTURE AS SMILES: "COc1ccccc1-c1cn(-c2ccc(O)c(C(=O)OCCCc3ccccc3)c2)nn1"
  UNIT STRING: "%"
  inhibition at 10 µM: 7
- STRUCTURE AS SMILES: "COc1ccc(-c2cn(-c3ccc(O)c(C(=O)NCCc4ccc(F)cc4)c3)nn2)cc1"
  UNIT STRING: "%"
  inhibition at 10 µM: 62
- STRUCTURE AS SMILES: "COc1ccc(OC)c(-c2cn(-c3ccc(O)c(C(=O)NCCc4ccc(F)cc4)c3)nn2)c1"
  UNIT STRING: "%"
  inhibition at 10 µM: 44
- STRUCTURE AS SMILES: "COc1ccccc1-c1cn(-c2ccc(O)c(C(=O)O)c2)nn1"
  UNIT STRING: "%"
  inhibition at 10 µM: 4
- STRUCTURE AS SMILES: "COc1cc(OC)cc(-c2cn(-c3ccc(O)c(C(=O)O)c3)nn2)c1"
  UNIT STRING: "%"
  inhibition at 10 µM: 2
- STRUCTURE AS SMILES: "COc1ccc(-c2cn(-c3ccc(O)c(C(=O)O)c3)nn2)cc1"
  UNIT STRING: "%"
  inhibition at 10 µM: 8
- STRUCTURE AS SMILES: "COC(=O)c1cc(-n2cc(-c3cc(OC)cc(OC)c3)nn2)ccc1O"
  UNIT STRING: "%"
  inhibition at 10 µM: 3
- STRUCTURE AS SMILES: "COC(=O)c1cc(-n2cc(-c3ccccc3OC)nn2)ccc1O"
  UNIT STRING: "%"
  inhibition at 10 µM: 8
- STRUCTURE AS SMILES: "COC(=O)c1cc(-n2cc(-c3cc(OC)ccc3OC)nn2)ccc1O"
  UNIT STRING: "%"
  inhibition at 10 µM: 6
- STRUCTURE AS SMILES: "COc1ccc(-c2cn(-c3ccc(O)c(C(=O)Nc4cccc(C(F)(F)F)c4)c3)nn2)cc1"
  UNIT STRING: "%"
  inhibition at 10 µM: 9
- STRUCTURE AS SMILES: "COc1ccc(-c2cn(-c3ccc(O)c(C(=O)OCCCc4ccccc4)c3)nn2)cc1"
  UNIT STRING: "%"
  inhibition at 10 µM: 12
- STRUCTURE AS SMILES: "COC(=O)c1cc(-n2cc(-c3ccc(OC)cc3)nn2)ccc1O"
  UNIT STRING: "%"
  inhibition at 10 µM: 6
- STRUCTURE AS SMILES: "O=C(OCCCc1ccccc1)c1cc(-n2cc(-c3cccc(O)c3)nn2)ccc1O"
  UNIT STRING: "%"
  inhibition at 10 µM: 11
- STRUCTURE AS SMILES: "COc1ccccc1-c1cn(-c2ccc(O)c(C(=O)Nc3cccc(C(F)(F)F)c3)c2)nn1"
  UNIT STRING: "%"
  inhibition at 10 µM: 61
- STRUCTURE AS SMILES: "O=C(OCCCc1ccccc1)c1cc(-n2cc(-c3cc(O)ccc3O)nn2)ccc1O"
  UNIT STRING: "%"
  inhibition at 10 µM: 39
- STRUCTURE AS SMILES: "COc1cc(OC)cc(-c2cn(-c3ccc(O)c(C(=O)NCCc4ccc(F)cc4)c3)nn2)c1"
  UNIT STRING: "%"
  inhibition at 10 µM: 43
- STRUCTURE AS SMILES: "COc1cc(OC)cc(-c2cn(-c3ccc(O)c(C(=O)OCCCc4ccccc4)c3)nn2)c1"
  UNIT STRING: "%"
  inhibition at 10 µM: 19
- STRUCTURE AS SMILES: "COc1ccc(OC)c(-c2cn(-c3ccc(O)c(C(=O)OCCCc4ccccc4)c3)nn2)c1"
  UNIT STRING: "%"
  inhibition at 10 µM: 13
- STRUCTURE AS SMILES: "COc1ccc(OC)c(-c2cn(-c3ccc(O)c(C(=O)Nc4cccc(C(F)(F)F)c4)c3)nn2)c1"
  UNIT STRING: "%"
  inhibition at 10 µM: 46
- STRUCTURE AS SMILES: "O=C(Nc1cccc(C(F)(F)F)c1)c1cc(-n2cc(-c3cccc(O)c3)nn2)ccc1O"
  UNIT STRING: "%"
  inhibition at 10 µM: 25

====

# System: CCRF-CEM
# PROCEDURE TEXT: Growth inhibition of human CCRF-CEM cells at 10 uM after 2 days by MTT assay
# Format: functional
# SETTINGS: 48 h
So basically: inhibition at 10 µM at 10% or higher? That is label 1. Lower than 10%? That is label 0.

- STRUCTURE AS SMILES: "COc1ccc(-c2cn(-c3ccc(O)c(C(=O)OCCCc4ccccc4)c3)nn2)cc1"
  ASSIGNED LABEL: "label 0"
- STRUCTURE AS SMILES: "O=C(OCCCc1ccccc1)c1cc(-n2cc(-c3cc(O)ccc3O)nn2)ccc1O"
  ASSIGNED LABEL: "label 1"
- STRUCTURE AS SMILES: "COc1cc(OC)cc(-c2cn(-c3ccc(O)c(C(=O)OCCCc4ccccc4)c3)nn2)c1"
  ASSIGNED LABEL: "label 0"
- STRUCTURE AS SMILES: "COC(=O)c1cc(-n2cc(-c3cc(O)ccc3O)nn2)ccc1O"
  ASSIGNED LABEL: "label 1"
- STRUCTURE AS SMILES: "COc1cc(OC)cc(-c2cn(-c3ccc(O)c(C(=O)O)c3)nn2)c1"
  ASSIGNED LABEL: "label 0"
- STRUCTURE AS SMILES: "COc1ccc(OC)c(-c2cn(-c3ccc(O)c(C(=O)NCCc4ccc(F)cc4)c3)nn2)c1"
  ASSIGNED LABEL: "label 1"
- STRUCTURE AS SMILES: "COc1ccc(OC)c(-c2cn(-c3ccc(O)c(C(=O)Nc4cccc(C(F)(F)F)c4)c3)nn2)c1"
  ASSIGNED LABEL: "label 1"
- STRUCTURE AS SMILES: "COc1ccccc1-c1cn(-c2ccc(O)c(C(=O)OCCCc3ccccc3)c2)nn1"
  ASSIGNED LABEL: "label 0"
- STRUCTURE AS SMILES: "O=C(O)c1cc(-n2cc(-c3cccc(O)c3)nn2)ccc1O"
  ASSIGNED LABEL: "label 0"
- STRUCTURE AS SMILES: "COC(=O)c1cc(-n2cc(-c3ccc(OC)cc3)nn2)ccc1O"
  ASSIGNED LABEL: "label 1"
- STRUCTURE AS SMILES: "COc1ccc(-c2cn(-c3ccc(O)c(C(=O)O)c3)nn2)cc1"
  ASSIGNED LABEL: "label 0"
- STRUCTURE AS SMILES: "COc1ccc(-c2cn(-c3ccc(O)c(C(=O)NCCc4ccc(F)cc4)c3)nn2)cc1"
  ASSIGNED LABEL: "label 1"
- STRUCTURE AS SMILES: "COc1ccc(-c2cn(-c3ccc(O)c(C(=O)Nc4cccc(C(F)(F)F)c4)c3)nn2)cc1"
  ASSIGNED LABEL: "label 1"
- STRUCTURE AS SMILES: "COC(=O)c1cc(-n2cc(-c3ccccc3OC)nn2)ccc1O"
  ASSIGNED LABEL: "label 0"
- STRUCTURE AS SMILES: "COc1ccccc1-c1cn(-c2ccc(O)c(C(=O)O)c2)nn1"
  ASSIGNED LABEL: "label 0"
- STRUCTURE AS SMILES: "COc1ccc(OC)c(-c2cn(-c3ccc(O)c(C(=O)O)c3)nn2)c1"
  ASSIGNED LABEL: "label 0"
